B1: mRNA-splicing (parent)
chain: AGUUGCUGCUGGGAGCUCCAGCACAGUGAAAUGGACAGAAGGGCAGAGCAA

Variants of: B1
Test: exon inclusion enrichment index; higher = more inclusion; WT1 exon 5 minigene, HEK293
REPORTED_ENDPOINT: exon inclusion enrichment index
Please give the numeric answer without any surrounding text.

Worked examples, 3 variants total:
Query :: Give the measured exon inclusion enrichment index of G5U G8U C9U G46A A47G .
Result :: 0.0611

Query :: Give the measured exon inclusion enrichment index of C6A U7C C9A U10C G43C .
Result :: 3.07

Query :: Give the measured exon inclusion enrichment index of C6A U7C C9A U10C A35C C36A .
Result :: 2.28

Further cases:
Query :: Give the measured exon inclusion enrichment index of G5A C6G U7G C9A C19G A20U .
Result :: 0.00167

Query :: Give the measured exon inclusion enrichment index of C6A U7C C9A U10C C19U A20C .
Result :: 3.08

Query :: Give the measured exon inclusion enrichment index of G5A U7C G8A U10C G12C G13A .
Result :: 0.95
